test system: TK-10; experiment: NCI tumour cell line growth inhibition, 48 h
Active and inactive are the calls of the source. Rule as the data show it: active = GI50 up to about 1.1 µM and inactive = higher.
Lab note: assign the record to one of Y (active), N (inactive)

CC(C)(O)/C1=C/C=C/CCCCCCCCCC1 = N
Nc1ccccc1.O=P(O)(O)c1ccccc1 = N
CC1(C)C(=O)/C=C\C(=O)C(C)(C)C(=O)/C=C\C(=O)C(C)(C)C(=O)/C=C\C(=O)C(C)(C)C(=O)/C=C\C1=O = N
O=c1cccccc1NCCCCCCNc1cccccc1=O = N
O=C(OC12CC3CC(CC(C3)C1)C2)c1ccc(NCc2cc(O)ccc2O)cc1 = Y

Kindly consider the entry below.
Query: Could you check what this test reported for O=C(O)C(Cl)(Cl)Cl ?
Reply: N

* * *

tested on: LOX IMVI; experiment: NCI tumour cell line growth inhibition, 48 h
The source made the active and inactive calls. Rule as the data show it: active = GI50 up to about 1.1 µM and inactive = higher.
Return exactly one item of 1.0 = active, 0.0 = inactive

COc1ccc(-c2cc(O)c3cc(OC)c(OC)cc3n2)cc1OC = 0.0
O=c1cccccc1NCCCCCCNc1cccccc1=O = 0.0

Query compound follows.
Query: Recorded call for COc1ccc(NCC#N)cc1 ?
Reply: 0.0

* * *

tested on: IGROV-1; test: NCI tumour cell line growth inhibition, 48 h
Active and inactive are the calls of the source. Rule as the data show it: active = GI50 up to about 1.1 µM and inactive = higher.
Experimental Endpoint: GI50

Here's what some known entries look like.
COC(=O)[C@@H]1CN(C(=O)CCc2ccccc2)C(=O)N1C(=O)OCc1ccccc1 = > 100 µM (inactive)
COc1ccc(NCC(=O)Nn2c(C)nc3ccc(S(=O)(=O)Nc4ccc(OC)cc4)cc3c2=O)cc1 = 69.7 µM (inactive)
C=C1C(=O)O[C@H]2C[C@@]3(COC(C)=O)C=COC=C(COC(=O)C(C)C)C3CC12 (stereo not given in full) = > 100 µM (inactive)

The reported GI50 value, IGROV-1, for NC(=S)N/N=C\c1ccc(OCc2cccc(COc3ccc(/C=N/NC(N)=S)cc3)n2)cc1 reads 14.8 µM (inactive)

Measured on IGROV-1, COc1ccc(C=O)c(NC(=O)C(C)C)c1 has a documented GI50 of > 100 µM (inactive)

* * *

The reader will find reported GI50 values listed item by item below.
tested on: KM12; assay: NCI tumour cell line growth inhibition, 48 h
Calls of active or inactive are those of the source. No stated cut-off is given here; in the data, active = GI50 up to about 1.1 µM and inactive = higher.

C/C(=N\NC(=S)Nc1ccc([N+](=O)[O-])cc1S(=O)(=O)O)c1ccccn1 = 51.8 µM (inactive)
COc1ccc(-c2cc(=O)c3c(O)c(OC)c(OC)c(OC)c3o2)cc1OC = > 100 µM (inactive)
O=C(CNC(=O)c1ccccc1)Oc1c(Cl)c(Cl)c(Cl)c(Cl)c1Cl = 22.4 µM (inactive)
CC(=O)NC1C(OCc2ccccc2)OC(CO)C(O)C1OCC(=O)N[C@@H](C)C(=O)N[C@H](CCC(=O)NCCNCCNc1c2ccccc2nc2cccc([N+](=O)[O-])c12)C(N)=O (some centres undefined) = 24.2 µM (inactive)
COc1cc2ccc(C(=O)NCCCNC(=O)c3ccc4cc(OC)c(OC)cc4c3)cc2cc1OC = > 100 µM (inactive)

Query OCCCNc1[nH]cnc2nncc1-2 yields GI50 of > 100 µM (inactive)

The reported value for CC(C)Cc1cccc(C(C)C)c1NC(=O)CCC(=O)N/N=C1\C(=N/NC(=O)CCC(=O)Nc2c(C(C)C)cccc2C(C)C)C(c2ccc3c(c2)OCO3)Oc2ccccc21 (centres undefined) in terms of GI50 is > 100 µM (inactive)

Lab book: GI50 of N=C(N)N/N=C(/c1nc2ccc([N+](=O)[O-])cc2[nH]c1=O)C(O)c1ccc([N+](=O)[O-])cc1 (centres undefined) noted as 36.1 µM (inactive)

Record Cc1ccc2c(c1)C(c1cccc3ccccc13)OC2=O (centres undefined) , field GI50: 99.1 µM (inactive)

// N#Cc1c(Nc2nc3ccccc3s2)c2ccccc2n2c1nc1ccccc12 : GI50 value = > 100 µM (inactive)

Memo: Cc1cc(-c2no[n+]([O-])c2-c2cc(C)sc2S(C)(=O)=O)c(S(C)(=O)=O)s1 , reported GI50: > 100 µM (inactive)

# GI50 (molecule: CSc1nc2c(c(=O)n1C)N=C(c1ccccc1)[C@H](C(CC(=O)c1ccccc1)c1ccccc1)C(c1ccccc1)N2 (some centres undefined) ) is 14.7 µM (inactive)

Record summary for C=C1C(=O)O[C@H]2C[C@@]3(COC(C)=O)C=COC=C(COC(=O)C(C)C)C3CC12 (some centres undefined) : reported GI50 = > 100 µM (inactive)

According to the records, this molecule Nc1ccc(Oc2ccc(C3(c4ccc(Oc5ccc(N)cc5)cc4)C4CC5CC(C4)CC3C5)cc2)cc1 displays GI50 of 3.77 µM (inactive)

* * *

tested on: A498; assay: NCI tumour cell line growth inhibition, 48 h
Active and inactive are the calls of the source. Cut-off read from the data, not from the text of the source: active = GI50 up to about 1.1 µM and inactive = higher.
Experimental Endpoint: GI50

Note to self: GI50 of CCOC(=O)c1c(-c2ccc(OC)c(O)c2)c(C#N)c(=S)n(C2OC(COC(C)=O)C(OC(C)=O)C(OC(C)=O)C2OC(C)=O)c1-c1ccccc1 (centres undefined) with A498 was > 100 µM (inactive)

Bench note, A498: Nc1ccc(Oc2ccc(C3(c4ccc(Oc5ccc(N)cc5)cc4)C4CC5CC(C4)CC3C5)cc2)cc1 , GI50 reads 2.91 µM (inactive)

# COC(=O)/C=C1\CCC2[C@@H](C(=O)CC3[C@]2(C)CCC[C@@]3(C)C(=O)OC)C1C (some centres undefined) with A498: GI50 is 34.7 µM (inactive)

I looked up Cc1ccc2ccc3ccc(C)nc3c2n1 and its GI50 for A498 was > 40.1 µM (inactive)

* * *

test system: SF-295; test: NCI tumour cell line growth inhibition, 48 h
Activity calls are given as the source filed them. No stated cut-off is given here; in the data, active = GI50 up to about 1.1 µM and inactive = higher.
# maps each entry to its GI50

CC#N.O[C@@H]1CCCC[C@@H]1O.O[C@@H]1CCCC[C@@H]1O.[TeH2] = 17.3 µM (inactive)
COc1cc(Cc2cc(OC)c(OC)c(OC)c2)ccc1O = 4.57 µM (inactive)
Cc1cccc2c1c(=O)c1c(O)c3c(cc1n2C)OC(C)(C)C=C3 = > 10 µM (inactive)
O=c1[nH]c(=O)n2n1C1C=CC2CC1 = > 100 µM (inactive)
CC1CCCCCC(=O)c2c(O)cc(O)cc2CC(=O)O1 (stereo unspecified) [CURVULARIN] = 94.8 µM (inactive)

Kindly review the next compound as well.
Consider Nc1ccccc1.O=P(O)(O)c1ccccc1 . Its measured GI50 is > 100 µM (inactive)

* * *

system: HCC 2998; assay: NCI tumour cell line growth inhibition, 48 h
Activity calls are given as the source filed them. No stated cut-off is given here; in the data, active = GI50 up to about 1.1 µM and inactive = higher.
Experimental Endpoint: GI50

Illustrative cases are given below, each with its answer.
CSc1nc(NC(C)C)c2c(n1)Sc1nc3ccccc3n1C2O (centres undefined) = 5.55 µM (inactive)
CSc1nc2c(c(=O)n1C)N=C(c1ccccc1)[C@H](C(CC(=O)c1ccccc1)c1ccccc1)C(c1ccccc1)N2 (some centres undefined) = > 100 µM (inactive)
CC1CCCCCC(=O)c2c(O)cc(O)cc2CC(=O)O1 (centres undefined) = > 100 µM (inactive)
CCCCCC/C=C/C#CCCCCCCCC(=O)O = > 100 µM (inactive)

Measured GI50, C/C(=N/NC(N)=S)C(CN1CCOCC1)C(C1=C(O)c2ccccc2OC1)c1ccccc1 (centres undefined) : > 100 µM (inactive)

Please fill in: GI50 reported for N#Cc1nn(C2OC(COC(=O)c3ccccc3)C(OC(=O)c3ccccc3)C2OC(=O)c2ccccc2)c2nc[nH]c(=O)c12 (centres undefined) = 78.2 µM (inactive)

Field GI50 (entry CC#N.O[C@@H]1CCCC[C@@H]1O.O[C@@H]1CCCC[C@@H]1O.[TeH2] ) reads > 100 µM (inactive)

compound COC(=O)/C=C\c1ccc2c(c1)CC1(C2)Cc2ccc(/C=C/C(=O)OC)cc2C1 (centres undefined) , GI50 observed: > 31.6 µM (inactive)

Lab note: COC(=O)[C@H](Cc1ccccc1)NC(=O)/C(=C/C(C)C)NC(=O)[C@H](CCSC)NC=O gave GI50 of > 100 µM (inactive)

# GI50 of Cc1cn(CCCC2=NCCCN2)c(=O)[nH]c1=O = > 100 µM (inactive)

For this compound ( CC(C)Cc1ccc(C(C)C(=O)N2CCN(/C=C/c3ccccc3)CC2)cc1 (centres undefined) ), measured GI50 is 17.9 µM (inactive)

# GI50 of Cc1cc2[nH]c(Cl)c(/C=C3\C(=O)Nc4ccccc43)c2cc1O = 4.2 µM (inactive)

# compound COC(=O)NN=C1C(C)(C)C(=O)C1(C)C ; its GI50 = > 100 µM (inactive)

* * *

test system: OVCAR-4; experiment: NCI tumour cell line growth inhibition, 48 h
Active and inactive are the calls of the source. Rule as the data show it: active = GI50 up to about 1.1 µM and inactive = higher.
Recorded GI50 values for a group of molecules are listed next.

Worked set:
Cc1ccc(C2c3c(n(C)c(=O)n(C)c3=O)OC(N(C)C)(N(C)C)C2(F)F)cc1 (stereo not given) = 51.4 µM (inactive)
CN(C(=O)C1CCCCCC1=O)c1ccccc1Cl (stereo not given) = > 100 µM (inactive)
COc1ccc(C=O)c(NC(=O)C(C)C)c1 = 27 µM (inactive)
O=C(N/N=C/c1ccc([N+](=O)[O-])o1)c1ccc(C(=O)N/N=C/c2ccc([N+](=O)[O-])o2)cc1 = 45 µM (inactive)
C/N=c1\ss/c(=N\C(=S)N(C)C)n1-c1ccccc1 = > 100 µM (inactive)
NC(=O)NCCCC(NC(=O)OCCCCCCn1ccc(=O)[nH]c1=O)C(=O)O (stereo not given) = > 100 µM (inactive)
O=NN1CCCS1(=O)=O = > 100 µM (inactive)
COc1ccc(/C=C/C(=N/NC(=O)N/N=C(/C=C/c2ccc(OC)cc2)C(C)C)C(C)C)cc1 = > 100 µM (inactive)

Sample Cc1cc(C)nc(NS(=O)(=O)c2ccc(NC(=O)c3cccc4c(Nc5ccc(S(N)(=O)=O)cc5)c5ccccc5nc34)cc2)n1 ; GI50 observed: 35.1 µM (inactive)

The value of GI50 measured for the molecule COC(=O)C1(C(=O)OC)N=C(C)OC1c1ccccn1 (stereo not given) turned out to be > 100 µM (inactive)
